The measured values listed here are drawn from the supplement of paper PMC7877785.

Assay: self-splicing fitness, log relative to wild type (ln ratio); higher = more splicing; Tetrahymena group I intron in knt gene, E. coli kanamycin selection, DiMSum; sequences stand for … in CUCUCU…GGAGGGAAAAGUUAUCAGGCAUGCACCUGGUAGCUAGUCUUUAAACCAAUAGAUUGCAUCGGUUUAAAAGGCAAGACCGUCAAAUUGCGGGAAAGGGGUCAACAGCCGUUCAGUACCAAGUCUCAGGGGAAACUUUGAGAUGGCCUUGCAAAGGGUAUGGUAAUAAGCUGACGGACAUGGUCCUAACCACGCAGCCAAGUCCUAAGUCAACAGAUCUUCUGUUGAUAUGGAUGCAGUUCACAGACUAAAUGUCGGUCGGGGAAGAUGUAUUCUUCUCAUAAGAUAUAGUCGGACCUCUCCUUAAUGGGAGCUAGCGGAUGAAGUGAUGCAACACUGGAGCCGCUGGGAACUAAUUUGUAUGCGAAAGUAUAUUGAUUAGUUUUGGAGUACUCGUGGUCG;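 note: selection with 25 µg/mL kanamycin versus none on LB agar overnight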
Conditions: 37 °C
Please enter satisfied where self-splicing fitness (ln) is greater than or equal to -1, and not satisfied where it is lower.

Worked set:
RECORD_SEQUENCE	CLASSIFICATION
ACAUAGCAAUAUUACGCUCC	not satisfied
ACUCAGCAAUAUUACGUGAA	satisfied

Please check the record GCUAAGCAAUAUUACGGGAU and state if its self-splicing fitness (ln) is at or above -1.
satisfied

====

Assay: self-splicing fitness, log relative to wild type (ln ratio); higher = more splicing; Tetrahymena group I intron in knt gene, E. coli kanamycin selection, DiMSum; sequences stand for … in CUCUCU…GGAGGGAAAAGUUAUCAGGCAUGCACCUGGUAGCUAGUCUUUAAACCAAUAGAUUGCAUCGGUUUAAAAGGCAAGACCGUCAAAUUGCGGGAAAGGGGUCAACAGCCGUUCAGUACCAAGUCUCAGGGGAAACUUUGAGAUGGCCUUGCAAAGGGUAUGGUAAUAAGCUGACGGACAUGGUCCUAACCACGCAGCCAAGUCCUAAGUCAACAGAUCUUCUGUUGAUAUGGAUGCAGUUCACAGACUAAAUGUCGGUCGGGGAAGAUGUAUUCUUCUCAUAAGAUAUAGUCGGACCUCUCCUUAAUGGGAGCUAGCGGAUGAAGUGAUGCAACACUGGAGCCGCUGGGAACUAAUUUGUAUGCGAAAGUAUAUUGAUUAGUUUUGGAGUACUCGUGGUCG
Settings: 37 °C
Note to self: values exactly at -1 are Met. So self-splicing fitness (ln) at or above -1 is Met, below is Not met.

Confirm if self-splicing fitness (ln) reported for the sequence CAGCAGCAAUAUUACGUUCU is -1 or above.
Not met

For this sequence, is measured self-splicing fitness (ln) -1 or higher? AGCCAGCAAUAUUACGUGAU
Not met

====

self-splicing fitness (ln) for assorted sequences
Test: self-splicing fitness, log relative to wild type (ln ratio); higher = more splicing; Tetrahymena group I intron in knt gene, E. coli kanamycin selection, DiMSum; sequences stand for … in CUCUCU…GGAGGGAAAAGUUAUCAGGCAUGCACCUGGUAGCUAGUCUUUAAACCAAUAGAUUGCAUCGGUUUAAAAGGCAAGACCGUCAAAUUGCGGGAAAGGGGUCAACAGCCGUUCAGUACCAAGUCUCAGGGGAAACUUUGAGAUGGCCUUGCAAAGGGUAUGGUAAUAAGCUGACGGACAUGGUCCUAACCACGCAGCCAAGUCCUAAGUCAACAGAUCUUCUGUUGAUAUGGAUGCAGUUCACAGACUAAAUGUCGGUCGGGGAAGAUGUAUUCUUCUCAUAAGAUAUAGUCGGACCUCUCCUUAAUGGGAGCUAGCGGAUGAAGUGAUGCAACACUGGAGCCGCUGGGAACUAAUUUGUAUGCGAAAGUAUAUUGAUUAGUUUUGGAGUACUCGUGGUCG
Details: 37 °C
The reply should be a number, written without any unit.

RECORD_SEQUENCE	ASSAY_RESULT
CAAGAGCAAUAUUACGCCAU	-2.02
GUAUAGCAAUAUUACGUACA	-0.449
AUUCAGCAAUAUUACGGAUA	-1.17
CUCUAGCAAUAUUACGUAGG	-1.9
CUGCAGCAAUAUUACGUUGA	-3.21

Reported self-splicing fitness (ln) for AAUAAGCAAUAUUACGUUAC : what is it?
-1.39

So what's the measured self-splicing fitness (ln) for this one? GUCAAGCAAUAUUACGAAUA
-1.42

# lookup: self-splicing fitness (ln) of UAUGAGCAAUAUUACGUAGG
-2.41

Return reported self-splicing fitness (ln); argument: AAUGAGCAAUAUUACGUGGG
-2.87

Fill in the blank: the reported self-splicing fitness (ln) of UCACAGCAAUAUUACGUUCU is ____.
-1.5

Entry UCACAGCAAUAUUACGUGUC has what self-splicing fitness (ln)?
-2.6

What value of self-splicing fitness (ln) has been recorded for this entry: CCGGAGCAAUAUUACGACUA
-1.88

Need self-splicing fitness (ln), item UAUGAGCAAUAUUACGUUGG
-2.24

Consider the sequence CUGUAGCAAUAUUACGAAAG and give its measured self-splicing fitness (ln).
-0.788

Look at this sequence and give its reported self-splicing fitness (ln). CCCGAGCAAUAUUACGUAAC
-3.05

What value of self-splicing fitness (ln) has been recorded for this entry: CUUAAGCAAUAUUACGCUAA
-1.58

// query self-splicing fitness (ln) value for entry CGGGAGCAAUAUUACGAUGG
-0.953

Report self-splicing fitness (ln) for UGGCAGCAAUAUUACGUAUG please.
-0.15

# query: self-splicing fitness (ln) of entry UUGUAGCAAUAUUACGUUGG
-1.98

Find the recorded self-splicing fitness (ln) belonging to AUUUAGCAAUAUUACGAUCU and report it.
0.0446

Quick one: self-splicing fitness (ln) for GUUAAGCAAUAUUACGGCCU ?
0.635

What value of self-splicing fitness (ln) has been recorded for this entry: GCUAAGCAAUAUUACGUAGU
-2.32

Sample CGCGAGCAAUAUUACGGCAA — what was its self-splicing fitness (ln)?
-1.97

Consider the sequence shown here: GGGCAGCAAUAUUACGUUUG What is its recorded self-splicing fitness (ln)?
-0.133

Entry under review: ACUAAGCAAUAUUACGUGAC . Reported self-splicing fitness (ln)?
-1.28

Please report the recorded self-splicing fitness (ln) for UACGAGCAAUAUUACGUUUA .
-1.79

Form field: reported self-splicing fitness (ln) of CACUAGCAAUAUUACGUCCU
-1.24

Reported self-splicing fitness (ln), sequence AAGCAGCAAUAUUACGCCAC : ____
-2.72

I have this sequence here, CUCCAGCAAUAUUACGCCAG , and I need its recorded self-splicing fitness (ln).
-2.08

Entry under review: CCUAAGCAAUAUUACGAAGA . Reported self-splicing fitness (ln)?
-1.82

====

Experiment: self-splicing fitness, log relative to wild type (ln ratio); higher = more splicing; Tetrahymena group I intron in knt gene, E. coli kanamycin selection, DiMSum; sequences stand for … in CUCUCU…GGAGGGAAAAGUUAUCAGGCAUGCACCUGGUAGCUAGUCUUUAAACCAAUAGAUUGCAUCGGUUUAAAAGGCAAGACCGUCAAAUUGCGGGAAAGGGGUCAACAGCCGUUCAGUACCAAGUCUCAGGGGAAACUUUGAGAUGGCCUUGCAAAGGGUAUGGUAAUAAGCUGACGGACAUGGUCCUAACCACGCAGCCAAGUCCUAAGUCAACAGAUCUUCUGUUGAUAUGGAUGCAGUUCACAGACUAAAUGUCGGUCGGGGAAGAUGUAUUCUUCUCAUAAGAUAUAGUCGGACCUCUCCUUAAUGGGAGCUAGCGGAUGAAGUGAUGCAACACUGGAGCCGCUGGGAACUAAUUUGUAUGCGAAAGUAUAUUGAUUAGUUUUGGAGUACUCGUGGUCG
Conditions: 37 °C
PARAMETER: self-splicing fitness (ln)
Reply with just the number.

Some entries whose results are on file:
RECORD_SEQUENCE	self-splicing fitness (ln)
UAAUAGCAAUAUUACGUUGG	-0.991
UAGUAGCAAUAUUACGUUAU	-3.13
CUACAGCAAUAUUACGCGGU	-2.17
ACUUAGCAAUAUUACGUAGU	-2.73
GAAAAGCAAUAUUACGGAAC	-1.25
ACUAAGCAAUAUUACGGUCU	-0.907

Which self-splicing fitness (ln) value is on record for AGCGAGCAAUAUUACGUUUC ?
-2.77

Bench note: what self-splicing fitness (ln) did ACGAAGCAAUAUUACGUAAA show?
-1.45

What measured self-splicing fitness (ln) goes with AUUUAGCAAUAUUACGUCGA ?
-0.501

Need self-splicing fitness (ln) of GCAAAGCAAUAUUACGCGAC , thanks.
-1.54

Can you look up the measured self-splicing fitness (ln) of UCAAAGCAAUAUUACGCGGC for me?
-2.59
